Property: IC50; scope: individual molecules
- TEST_TARGET: Rac GTPase-activating protein 1 (Homo sapiens, UniProt Q9H0H5)
- Sequence (Q9H0H5 whole entry): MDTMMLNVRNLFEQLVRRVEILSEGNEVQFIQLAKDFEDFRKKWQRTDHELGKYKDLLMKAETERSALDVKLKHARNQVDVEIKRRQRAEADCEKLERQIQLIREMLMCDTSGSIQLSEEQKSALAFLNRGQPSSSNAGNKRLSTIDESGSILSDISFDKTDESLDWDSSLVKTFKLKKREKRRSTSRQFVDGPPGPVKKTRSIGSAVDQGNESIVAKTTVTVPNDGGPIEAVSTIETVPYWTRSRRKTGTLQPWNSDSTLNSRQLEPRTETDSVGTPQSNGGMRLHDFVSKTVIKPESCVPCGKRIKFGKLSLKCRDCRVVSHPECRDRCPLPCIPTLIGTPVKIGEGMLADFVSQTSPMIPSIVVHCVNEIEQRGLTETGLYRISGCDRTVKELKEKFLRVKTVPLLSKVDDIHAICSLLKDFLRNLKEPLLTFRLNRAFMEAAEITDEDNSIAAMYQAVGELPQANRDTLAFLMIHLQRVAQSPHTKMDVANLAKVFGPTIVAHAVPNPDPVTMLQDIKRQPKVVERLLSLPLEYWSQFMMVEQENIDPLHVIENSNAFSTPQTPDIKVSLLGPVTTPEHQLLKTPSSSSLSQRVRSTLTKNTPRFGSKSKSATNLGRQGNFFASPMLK
- METHOD_SUMMARY: MgcRacGAP GTPase-activating activity inhibitors, confirmation, biochemical, ADP Hunter fluorescence, primary and confirmatory (AID 624330)
- Assay type: functional
Calls of active or inactive are those of the source.

For orientation, consider the following solved cases.
MOLECULE	IC50
CCN(CC)CCCNc1[nH]c2ccccc2c2nc3ccc(OC)cc3c1-2	31.7 µM (active)
Oc1ccc(-c2csc(-c3cccnc3)n2)c(O)c1	30.9 µM (active)
Nc1ccc(N2CCN(c3ccc(F)cc3)CC2)cc1	18.2 µM (active)
Nc1ccccc1C(=O)NNc1c2ccccc2nc2ccccc12	98.3 µM (active)
COc1cc(/C=C2\SC(N)=NC2=O)cc(Cl)c1O	43.6 µM (active)

For the molecule COc1ccc(NC(=O)/C(Cl)=C(/Cl)[S+]([O-])Cc2ccc(Cl)cc2)cn1 (configuration not stated) , what IC50 is on record?
16.9 µM (active)

For the molecule "O=C(Cn1c(C(=O)NCc2ccco2)cc2sccc21)c1ccccc1" , what IC50 is on record?
139 µM (active)

====

- TEST_TARGET: SWI/SNF-related matrix-associated actin-dependent regulator of chromatin subfamily A member 2 (Homo sapiens)
- Sequence (P51531 whole entry): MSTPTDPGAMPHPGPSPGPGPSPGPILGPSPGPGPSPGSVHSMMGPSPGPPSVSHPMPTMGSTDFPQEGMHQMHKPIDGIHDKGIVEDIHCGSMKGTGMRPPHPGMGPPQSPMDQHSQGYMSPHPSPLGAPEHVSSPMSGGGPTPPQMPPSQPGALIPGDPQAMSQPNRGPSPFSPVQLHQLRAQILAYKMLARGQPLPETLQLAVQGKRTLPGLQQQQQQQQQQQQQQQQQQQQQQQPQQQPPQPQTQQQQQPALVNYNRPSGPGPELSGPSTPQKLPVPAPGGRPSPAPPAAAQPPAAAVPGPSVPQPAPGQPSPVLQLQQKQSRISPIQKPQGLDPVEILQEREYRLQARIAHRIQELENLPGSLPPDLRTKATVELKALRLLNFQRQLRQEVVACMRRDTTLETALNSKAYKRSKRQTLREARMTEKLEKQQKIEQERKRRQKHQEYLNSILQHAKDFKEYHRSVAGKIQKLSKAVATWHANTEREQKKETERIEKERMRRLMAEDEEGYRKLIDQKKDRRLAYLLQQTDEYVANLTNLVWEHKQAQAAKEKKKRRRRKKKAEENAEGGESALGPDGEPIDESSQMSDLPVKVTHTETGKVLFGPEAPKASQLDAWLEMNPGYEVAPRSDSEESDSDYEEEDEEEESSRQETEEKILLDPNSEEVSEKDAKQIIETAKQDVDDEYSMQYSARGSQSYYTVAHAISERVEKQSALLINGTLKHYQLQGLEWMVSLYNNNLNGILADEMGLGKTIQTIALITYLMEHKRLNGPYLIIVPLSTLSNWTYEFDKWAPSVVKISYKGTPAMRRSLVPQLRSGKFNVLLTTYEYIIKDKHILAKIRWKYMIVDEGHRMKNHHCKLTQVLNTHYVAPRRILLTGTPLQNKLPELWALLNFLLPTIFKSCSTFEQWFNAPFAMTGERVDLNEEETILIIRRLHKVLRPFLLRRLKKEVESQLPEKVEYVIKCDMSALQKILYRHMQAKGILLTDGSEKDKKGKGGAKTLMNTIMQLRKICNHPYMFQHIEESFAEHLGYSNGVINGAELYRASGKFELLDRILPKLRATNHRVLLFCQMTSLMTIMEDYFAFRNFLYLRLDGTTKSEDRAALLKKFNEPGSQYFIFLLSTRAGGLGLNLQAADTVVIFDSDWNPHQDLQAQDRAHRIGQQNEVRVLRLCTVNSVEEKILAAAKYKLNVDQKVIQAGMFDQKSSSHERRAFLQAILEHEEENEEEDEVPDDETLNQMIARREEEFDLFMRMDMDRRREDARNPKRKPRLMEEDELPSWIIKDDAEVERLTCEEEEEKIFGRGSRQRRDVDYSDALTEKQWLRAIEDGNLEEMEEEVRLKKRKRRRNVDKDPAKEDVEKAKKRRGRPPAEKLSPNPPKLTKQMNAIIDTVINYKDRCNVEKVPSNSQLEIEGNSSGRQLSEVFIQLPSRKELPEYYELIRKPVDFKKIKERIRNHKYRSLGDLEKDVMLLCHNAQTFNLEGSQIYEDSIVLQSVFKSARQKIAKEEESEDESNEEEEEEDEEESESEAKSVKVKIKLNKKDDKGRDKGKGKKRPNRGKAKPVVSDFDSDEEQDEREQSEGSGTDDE
- METHOD_SUMMARY: Luminescence-based cell-based high throughput dose response assay to identify activators of the function of SWI/SNF related, matrix associated, actin dependent regulator of chromatin, subfamily a, member 2 (SMARCA2, BRM).
- Type: functional
Activity calls are given as the source filed them.
Property: EC50; scope: individual compounds

For orientation, consider the following solved cases.
SUBSTANCE_SMILES	RECORDED_RESULT
Cc1nccc(-c2cc(-c3ccc(Cl)cc3Cl)no2)n1	> 91.2 µM (inactive)
Cc1nnc(SCc2nc3ccccc3s2)n1N	> 91.1 µM (inactive)
CC1CCN(S(=O)(=O)c2ccc3nc(-c4ccccn4)cc(C(=O)NCCN(C)Cc4ccccc4)c3c2)CC1	> 91.2 µM (inactive)

Here's the next entry for you.
For the compound "COc1cccc(CNC(=O)COC(=O)c2nc(Cl)c(Cl)c(Cl)c2Cl)c1" , what EC50 is on record?
> 91.2 µM (inactive)

====

- Tested on: Streptococcus
- METHOD_SUMMARY: Group A Streptococcus viability loss, dose response, counter-screen for streptokinase expression inhibitor project, luminescence, BacTiterGlo (AID 1915);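 also: potency for reduction of bacterial viability or growth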
- Assay type: functional, organism-based
Activity calls are given as the source filed them.
MEASUREMENT_TYPE: EC50

For orientation, consider the following solved cases.
MOLECULE	EC50
Cc1ccc2nc(N3C(=O)CNC3=S)sc2c1	11.2 µM (active)
COc1ccc(NS(=O)(=O)c2ccc3ccccc3c2)c2ncccc12	4.63 µM (active)
Cc1ccc(C(=O)/C=C/C(=O)c2ccc(C)cc2)cc1	9.38 µM (active)
CCOC(=O)C(C(=O)OCC)c1cc(Br)c2noc3c2c1C(=O)c1ccccc1-3	> 150 µM (not active)
COc1c(N2CCN(C(S)=Nc3ccc(F)cc3)C(C)C2)c(F)cc2c(=O)c(C(=O)O)cn(C3CC3)c12 (stereo unspecified)	5.79 µM (active)

Here's the next entry for you.
For the molecule Cc1ccc(C2Oc3ccccc3C3=C2C(c2cccs2)n2ncnc2N3)cc1 (stereo unspecified) , what EC50 is on record?
7.1 µM (active)

====

- TEST_TARGET: Short transient receptor potential channel 4 (Mus musculus, UniProt Q9QUQ5)
- Sequence (Q9QUQ5 whole entry): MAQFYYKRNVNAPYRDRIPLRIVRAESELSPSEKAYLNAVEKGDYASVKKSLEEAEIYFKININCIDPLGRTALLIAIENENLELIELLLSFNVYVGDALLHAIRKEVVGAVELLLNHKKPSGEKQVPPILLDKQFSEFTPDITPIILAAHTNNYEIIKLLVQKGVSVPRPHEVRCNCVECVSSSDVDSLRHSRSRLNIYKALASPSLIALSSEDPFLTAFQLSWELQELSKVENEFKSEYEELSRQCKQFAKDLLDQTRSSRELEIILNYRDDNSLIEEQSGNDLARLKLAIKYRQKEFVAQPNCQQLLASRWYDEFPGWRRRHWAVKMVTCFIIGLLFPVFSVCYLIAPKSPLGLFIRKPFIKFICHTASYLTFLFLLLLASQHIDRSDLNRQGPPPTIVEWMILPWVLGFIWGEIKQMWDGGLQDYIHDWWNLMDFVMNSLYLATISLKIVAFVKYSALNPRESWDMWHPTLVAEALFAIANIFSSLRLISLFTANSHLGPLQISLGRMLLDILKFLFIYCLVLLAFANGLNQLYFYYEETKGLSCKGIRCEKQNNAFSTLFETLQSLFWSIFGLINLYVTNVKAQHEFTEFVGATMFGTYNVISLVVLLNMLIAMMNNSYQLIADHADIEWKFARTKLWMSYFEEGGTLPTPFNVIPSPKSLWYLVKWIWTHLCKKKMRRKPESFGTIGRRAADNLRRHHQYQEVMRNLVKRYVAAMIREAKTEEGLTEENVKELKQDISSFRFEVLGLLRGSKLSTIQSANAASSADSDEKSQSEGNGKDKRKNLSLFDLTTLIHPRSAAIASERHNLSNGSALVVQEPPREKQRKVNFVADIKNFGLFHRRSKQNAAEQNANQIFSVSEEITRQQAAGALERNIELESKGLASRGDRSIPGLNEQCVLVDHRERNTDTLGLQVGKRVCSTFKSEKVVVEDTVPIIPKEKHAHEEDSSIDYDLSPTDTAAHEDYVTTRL
- METHOD_SUMMARY: mouse TRPC4 channel inhibitors, dose response, cell-based, HEK293 TRPC4/mu-opioid, Fluo-4 calcium (AID 434942);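 also: potency of inhibitors blocking the TRPC4 calcium response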
- Type: functional
Activity calls are given as the source filed them.
Property: EC50; scope: individual molecules

For orientation, consider the following solved cases.
MOLECULE	EC50
CCc1nc2ccccc2n1Cc1ccccc1OC	10.6 µM (active)
Fc1ccccc1Sc1ccccc1CNC1=NCCN1	0.944 µM (active)
Cc1ccc(S(=O)(=O)c2cnc(-c3ccccc3)nc2N2CCN(C)CC2)cc1	6.68 µM (active)
Cc1ccc(OCC(=O)NNC(=S)NC(=O)c2ccc(Br)o2)c(C)c1	13.3 µM (active)
CC(C)Sc1nc2sc3c(c2c2nnc(SCC(=O)NCc4ccco4)n12)CCCC3	3.76 µM (active)
CCOC(=O)C1(CCc2ccccc2)CCN(Cc2ccccn2)CC1	4.22 µM (active)

Here's the next entry for you.
For the molecule Cc1ccccc1[N+]1=C2CCCCN2C(O)(c2cccs2)C1 (configuration not stated) , what EC50 is on record?
2.37 µM (active)

====

- TEST_TARGET: Polyadenylate-binding protein 1 (Homo sapiens, UniProt P11940)
- Sequence (P11940 whole entry): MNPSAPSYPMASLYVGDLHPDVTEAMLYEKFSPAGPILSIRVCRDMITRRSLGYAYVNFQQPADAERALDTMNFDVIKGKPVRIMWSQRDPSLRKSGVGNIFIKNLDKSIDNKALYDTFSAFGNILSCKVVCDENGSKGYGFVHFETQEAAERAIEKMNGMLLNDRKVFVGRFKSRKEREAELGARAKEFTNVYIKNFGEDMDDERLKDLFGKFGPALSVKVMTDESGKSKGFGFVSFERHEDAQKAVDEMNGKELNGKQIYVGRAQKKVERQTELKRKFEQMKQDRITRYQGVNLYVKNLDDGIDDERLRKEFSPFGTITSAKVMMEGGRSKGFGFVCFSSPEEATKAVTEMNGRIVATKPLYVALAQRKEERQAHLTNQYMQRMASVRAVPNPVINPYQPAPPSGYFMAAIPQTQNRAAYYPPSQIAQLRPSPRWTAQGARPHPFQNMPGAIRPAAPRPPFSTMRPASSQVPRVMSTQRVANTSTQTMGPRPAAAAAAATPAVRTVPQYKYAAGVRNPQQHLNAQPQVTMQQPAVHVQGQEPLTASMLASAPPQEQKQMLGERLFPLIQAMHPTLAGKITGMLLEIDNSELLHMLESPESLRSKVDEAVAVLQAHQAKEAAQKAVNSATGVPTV
- METHOD_SUMMARY: PABP poly(A) RNA binding inhibitors, primary screen, biochemical, fluorescence polarization, uHTS (AID 2014)
Calls of active or inactive are those of the source.
Reply using exactly one outcome from active, inactive

Examples from the recorded data:
COMPOUND	CLASSIFICATION
C[n+]1cccc(/C=N/NC(=O)CC23CC4CC(CC(C4)C2)C3)c1	active
COC(=O)c1c(Sc2ccccc2)c2ccccc2n1C	active
CC(C)C[C@H](NC(=O)C1CC(=O)N(c2ccc3c(c2)OCO3)C1)C(=O)NCc1ccco1 (stereo not given in full)	inactive

// return assay outcome for "CCN1C(NCCc2cccnc2)=N[C@@H](c2ccccc2)C(C(=O)OC)=C1C"
active

// return assay outcome for CCc1cc2c(=O)c(-c3nc4ccccc4n3C)coc2c(CN2CCCCC2C)c1O (stereo not given)
active

====

- TEST_TARGET: Eukaryotic translation initiation factor 4E (Mus musculus, UniProt P63073)
- Sequence (P63073 whole entry): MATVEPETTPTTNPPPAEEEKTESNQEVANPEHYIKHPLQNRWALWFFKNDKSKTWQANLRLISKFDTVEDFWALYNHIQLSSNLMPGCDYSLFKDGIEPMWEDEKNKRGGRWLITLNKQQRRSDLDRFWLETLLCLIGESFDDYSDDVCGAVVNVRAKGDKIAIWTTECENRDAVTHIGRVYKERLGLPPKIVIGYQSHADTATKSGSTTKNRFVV
- METHOD_SUMMARY: eIF4E–eIF4G protein interaction inhibitors, dose response, biochemical, TR-FRET (AID 855);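 also: potency for disrupting eIF4E binding to eIF4GI seen as loss of FRET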
- Assay type: functional
The source made the active and inactive calls.
Reply using exactly one outcome from active, inactive

COMPOUND	CLASSIFICATION
O=C(OCC(=O)c1c[nH]c2ccccc12)c1cccc(O)c1	inactive
Cn1c(C(C)(O)C(O)c2ccccc2)nc2ccccc21 (centres undefined)	inactive
CCCCCCCCCCCCCCCC[n+]1ccc(C(N)=O)cc1	active

# ---- query compound ----
// return assay outcome for "CC(=O)c1ccc(NC(=O)CSc2ccsc2[N+](=O)[O-])cc1"
inactive

====

- METHOD_SUMMARY: inhibitors of HIV Env-driven cell fusion, dose response, cherry-pick (AID 652057)
- Assay type: functional, cell-based
The source made the active and inactive calls.
Property: AC50; scope: individual compounds

SUBSTANCE_SMILES	AC50
Cc1[nH]c2ccc(OC(F)(F)F)cc2c1CCNCc1ccc(Cl)cc1	838 nM (active)
Cn1c(O)nc2cc3ccccc3cc21	1460 nM (active)
COc1cccc(NC(=O)Nc2cccc(C(=O)O)c2)c1	1800 nM (active)

Here's the next entry for you.
For the compound "C[C@H]1CN([C@@H](C)CO)C(=O)Cc2cc(NC(=O)Nc3ccccc3)ccc2O[C@H]1CN(C)S(=O)(=O)c1ccccc1" , what AC50 is on record?
5160 nM (active)

====

- METHOD_SUMMARY: cells
- Type: functional
Activity calls are given as the source filed them.
Property: IC50; scope: individual compounds

For orientation, consider the following solved cases.
COMPOUND	IC50
NCCOc1ccc(C23CC4CC(CC(C4)C2)C3)cc1	23.4 µM (active)
Cc1cccc(-c2cc3nc(C)c(C)c(NCCCn4ccnc4)n3n2)c1	9.68 µM (active)
CCc1ccc(OCCNc2cc(N3CCNC(C)C3)ccc2[N+](=O)[O-])cc1 (configuration not stated)	24 µM (active)
CC(C)(C)c1ccc(OCCCC(=O)NC2=NCCS2)cc1	20.1 µM (active)
COc1ccc(C(=O)C(CN2CCCC2)c2ccccc2)cc1 (configuration not stated)	16.5 µM (active)
COc1ccccc1C1=NOC(COC(=O)c2ccc([N+](=O)[O-])cc2)C1 (configuration not stated)	3.93 µM (active)

Here's the next entry for you.
For the compound CC1(C(=O)OCC(=O)Nc2nnc(-c3ccccc3)o2)CC1(Cl)Cl (configuration not stated) , what IC50 is on record?
24.9 µM (active)

====

- TEST_TARGET: FAD-linked sulfhydryl oxidase ALR (Homo sapiens)
- Sequence (P55789 whole entry): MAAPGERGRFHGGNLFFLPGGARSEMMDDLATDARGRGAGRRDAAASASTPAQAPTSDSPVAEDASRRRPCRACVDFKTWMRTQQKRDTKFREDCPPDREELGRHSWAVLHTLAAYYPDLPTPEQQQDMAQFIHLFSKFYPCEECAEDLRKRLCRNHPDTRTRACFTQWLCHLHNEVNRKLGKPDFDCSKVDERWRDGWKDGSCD
- METHOD_SUMMARY: inhibitors of human ALR sulfhydryl oxidase, dose response, biochemical, H2O2 detection, luminescence, cherry-pick (AID 493248)
Activity calls are given as the source filed them.
Property: AC50; scope: individual compounds

For orientation, consider the following solved cases.
SUBSTANCE_SMILES	MEASUREMENT_TYPE	RECORDED_RESULT
Nc1ccc(N2CCN(c3ccc(F)cc3)CC2)cc1	AC50	821 nM (active)
C=CCc1cc(/C=C/c2nc(O)c([N+](=O)[O-])c(O)n2)cc(OC)c1O	AC50	469 nM (active)

Here's the next entry for you.
For the compound "Nc1ccc(-c2nc3ccccc3[nH]2)cc1" , what AC50 is on record?
1300 nM (active)

Cited source for all entries: ChEMBL document CHEMBL1201862
